Each recorded value in this set is attributed to PubChem BioAssay (Tox21).

# Assay Info: Nuclear factor erythroid 2-related factor 2/antioxidant responsive element (Nrf2/ARE) small molecule agonists: qHTS cell viability counter screen in human keratinocytes (AID 1919968); note: % is set by controls: 0 for no effect and ±100 for the full control effect; nearly all actives have a fitted effect of over 55% in size
# Condition: KeratinoSens HaCaT ARE cells viability, CellTiter-Fluor, 24 h; series mostly up to 92.4 µM
Records with an inconclusive call do not appear. The source made the active and inactive calls. Calls come from the whole dose curve; as a rule, active = well fitted cell-killing curve with a large enough effect in the repeat runs; inconclusive = weak or mixed curves, or effect the other way; inactive = flat fitted curve, though single readings scatter.
activity change, negative = cytotoxicity overview

Compound	activity change, negative = cytotoxicity
C=C(C)C(=O)OCCCCCCCCCCCCCCCCCC	0.16% [at 19 µM] (inactive)
CCC(Cl)CC(Cl)C(Cl)C(Cl)C(Cl)C(C)Cl (stereo unspecified)	2.55% [at 19 µM] (inactive)
O=C(O)c1ccccc1Nc1cc(Cl)ccc1C(=O)O	0.544% [at 19 µM] (inactive)
C[C@@H]1CN(c2c(F)c(F)c3c(=O)c(C(=O)O)cn(C4CC4)c3c2F)C[C@H](C)N1	-4.39% [at 19 µM] (inactive)
O=CO	0.89% [at 8.39 µM] (inactive)
Cn1ccc2cc3c(cc21)CCN3C(=O)Nc1cccnc1	3.31% [at 19 µM] (inactive)
Cc1[nH]c(C)c(Cl)c(=O)c1Cl	5.34% [at 19 µM] (inactive)
NC[C@H]1O[C@H](O[C@H]2[C@H](O)[C@@H](O[C@H]3O[C@H](CO)[C@@H](O)[C@H](N)[C@H]3O)[C@H](N)C[C@@H]2N)[C@H](O)[C@@H](O)[C@@H]1O	2.11% [at 8.39 µM] (inactive)
N=C(N)N1CCc2ccccc2C1	2.9% [at 8.39 µM] (inactive)
NC(N)=NCCC[C@H](N)C(=O)O	-4.64% [at 8.39 µM] (inactive)
O=C(O)CN(CCOCCOCCN(CC(=O)O)CC(=O)O)CC(=O)O	-7.96% [at 0.349 µM] (inactive)
